# Test system: CCl4 induced liver fibrosis in rats
# testProtocol: Evaluation of anti-liver fibrosis in vivo (CCl4 induced liver injury/fibrosis)
# Design: species or system SD rats
# conditions: liver tissue, ELISA kit; CCl4 rats; test compound 10 mg/ml, 0.5 ml/100 g intragastric 1 time/day; 8 weeks
measuredEndpoint: MDA (nmol/mg protein)
Answers are plain numbers, in nmol/mg protein.

entrySmiles: Oc1ccc(C=Cc2cc(O)cc(O)c2)cc1
unitName: nmol/mg protein
numericResult: 1.17

Give one value of MDA per listed molecule.
1. [2H]C([2H])([2H])Oc1ccc(/C=C/c2cc(OC)cc(OCCCC(C)(C)C(=O)O)c2)cc1
2. [2H]C([2H])([2H])Oc1cc(/C=C/c2ccc(OC)cc2)cc(OCCCC(C)(C)C(=O)O)c1
3. [2H]C([2H])([2H])Oc1ccc(/C=C/c2cc(OCCCC(C)(C)C(=O)O)cc(OC([2H])([2H])[2H])c2)cc1
4. COc1ccc(/C=C/c2cc(OC)cc(OCCCC(C)(C)C(=O)O)c2)cc1

Response line:
1: 0.92; 2: 0.77; 3: 0.70; 4: 0.72

---

# System: CCl4 induced liver fibrosis in rats
# testProtocol: Evaluation of anti-liver fibrosis in vivo (CCl4 induced liver injury/fibrosis)
# Design: species or system SD rats
# conditions: liver tissue, ELISA kit; CCl4 rats; test compound 10 mg/ml, 0.5 ml/100 g intragastric 1 time/day; 8 weeks
Lab note: anything with HYP at or over 0.7 μg/mg protein counts as 1; the rest go in 0.

entrySmiles: COc1ccc(/C=C/c2cc(OC)cc(OCCCC(C)(C)C(=O)O)c2)cc1
class: 0
--
entrySmiles: [2H]C([2H])([2H])Oc1ccc(/C=C/c2cc(OCCCC(C)(C)C(=O)O)cc(OC([2H])([2H])[2H])c2)cc1
class: 0

Pending molecule:
Prompt line: Please check the record Oc1ccc(C=Cc2cc(O)cc(O)c2)cc1 and state if its HYP is at or above 0.7 μg/mg protein.
Response line: 1

---

# System: liver function in mice
# testProtocol: Evaluation of subacute toxicity (continuous administration, liver function)
# Assay type: in vivo
# conditions: serum; male ICR mice, 200 mg/kg intragastric once a day for 4 consecutive weeks
measuredEndpoint: ALT (U/L)
Give bare numbers, in U/L.

Give one value of ALT per listed compound.
1. COc1ccc(/C=C/c2cc(OC)cc(OCCCC(C)(C)C(=O)O)c2)cc1
2. [2H]C([2H])([2H])Oc1ccc(/C=C/c2cc(OCCCC(C)(C)C(=O)O)cc(OC([2H])([2H])[2H])c2)cc1
3. [2H]C([2H])([2H])Oc1cc(/C=C/c2ccc(OC)cc2)cc(OCCCC(C)(C)C(=O)O)c1
4. [2H]C([2H])([2H])Oc1ccc(/C=C/c2cc(OC)cc(OCCCC(C)(C)C(=O)O)c2)cc1

Response line:
1. 47.33
2. 26.47
3. 16.07
4. 36.57
